The measured values listed here are drawn from ChEMBL document CHEMBL1154462.

Reported values of MIC for individual entries
- Test system: Staphylococcus aureus
- Protocol details: Antibacterial activity against Staphylococcus aureus isolate by agar cup method
- Type: functional

Note to self: MIC recorded for c1ccc2c3c(ccc2c1)OCc1[se]nnc1-3 was 250 µg/mL

---

Reported values of MIC for individual entries
- Tested on: Staphylococcus aureus
- Protocol details: Antibacterial activity against Staphylococcus aureus isolate by agar cup method
- Format: functional
Give the value, in units of µg/mL, as a plain number.

Some solved cases for reference:
Compound	MIC [µg/mL]
Brc1ccc2c3c(ccc2c1)OCc1[se]nnc1-3	50
CC1Oc2ccc3cc(Br)ccc3c2-c2nn[se]c21 (centres undefined)	500
CC1Oc2ccc3ccccc3c2-c2nn[se]c21 (centres undefined)	250

Now for a further compound.
Simply: Brc1cccc2c3c(ccc12)OCc1[se]nnc1-3 , Staphylococcus aureus, MIC = 50
